Test system: Escherichia coli TOP10
method notes: shrunken log2 fold change of peptide-encoding DNA abundance (4.5 h post-induction vs induction); higher = less antimicrobial activity (less host growth inhibition)
condition: time post-induction: 4.5 h; library: site-saturation at positions 5, 18, 19, 20
Tick 1 if shrunken log2 fold change is -0.09 or greater. Tick -1 if shrunken log2 fold change is less than -0.09.

// below: answered sequences
RRIRNRPPRLPRPRPRPPFPPRP :: 1
RRIRDRPPRLPRPRPRPTLYPRP :: 1
RRIRWRPPRLPRPRPRPSDNPRP :: -1

Answer whether shrunken log2 fold change of `RRIRYRPPRLPRPRPRPNSLPRP` is greater than or equal to -0.09. -1

Answer whether shrunken log2 fold change of `RRIRMRPPRLPRPRPRPTDFPRP` is greater than or equal to -0.09. 1

Answer whether shrunken log2 fold change of `RRIRLRPPRLPRPRPRPDVMPRP` is greater than or equal to -0.09. -1

Answer whether shrunken log2 fold change of `RRIRWRPPRLPRPRPRPPFFPRP` is greater than or equal to -0.09. 1

Answer whether shrunken log2 fold change of `RRIRVRPPRLPRPRPRPAQFPRP` is greater than or equal to -0.09. 1

---

System: Escherichia coli TOP10
method notes: shrunken log2 fold change of peptide-encoding DNA abundance (4.5 h post-induction vs induction); higher = less antimicrobial activity (less host growth inhibition)
condition: time post-induction: 4.5 h; library: site-saturation at positions 5, 18, 19, 20
I'd appreciate it if you could supply shrunken log2 fold change values for the items below.
Give bare numbers.

RRIRDRPPRLPRPRPRPTMYPRP :: -0.107
RRIRDRPPRLPRPRPRPYTYPRP :: 0.0218
RRIRCRPPRLPRPRPRPRASPRP :: 0.282
RRIRMRPPRLPRPRPRPCYYPRP :: -0.199
RRIRPRPPRLPRPRPRPVMYPRP :: -0.0963
RRIRVRPPRLPRPRPRPHSAPRP :: -0.119

Answer for every listed entry: what is its shrunken log2 fold change? The entries follow.
1. RRIRIRPPRLPRPRPRPRSQPRP
2. RRIRKRPPRLPRPRPRPLRMPRP
3. RRIRPRPPRLPRPRPRPIVCPRP
4. RRIRHRPPRLPRPRPRPKMMPRP
5. RRIRFRPPRLPRPRPRPYCRPRP
6. RRIRHRPPRLPRPRPRPFYKPRP
7. RRIRVRPPRLPRPRPRPTCIPRP

1. 0.085
2. 0.236
3. -0.228
4. 0.00455
5. -0.256
6. -0.774
7. -0.372

Answer for every listed entry: what is its shrunken log2 fold change? The entries follow.
1. RRIRLRPPRLPRPRPRPECVPRP
2. RRIRDRPPRLPRPRPRPARCPRP

0.148
0.446

---

Test system: Escherichia coli TOP10;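 further: peptides expressed intracellularly from a pBAD plasmid library in pooled LB shake-flask culture, induced with 0.3% L-arabinose, DNA abundance read by NGS, three biological replicates, DESeq2 with apeglm shrinkage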
method notes: shrunken log2 fold change of peptide-encoding DNA abundance (4.5 h post-induction vs induction); higher = less antimicrobial activity (less host growth inhibition)
condition: time post-induction: 4.5 h; library: site-saturation at positions 5, 18, 19, 20
I'd appreciate it if you could supply shrunken log2 fold change values for the items below.

Answer for every listed entry: what is its shrunken log2 fold change? The entries follow.
1. RRIRCRPPRLPRPRPRPLIQPRP
2. RRIRWRPPRLPRPRPRPTVCPRP
3. RRIRKRPPRLPRPRPRPCNGPRP

[-0.457, 0.00145, -0.0184]

Answer for every listed entry: what is its shrunken log2 fold change? The entries follow.
1. RRIRKRPPRLPRPRPRPGHQPRP
2. RRIRMRPPRLPRPRPRPEPVPRP
3. RRIRIRPPRLPRPRPRPALEPRP
4. RRIRMRPPRLPRPRPRPGPEPRP
5. RRIRNRPPRLPRPRPRPSKFPRP

1: -0.0847; 2: 1.01; 3: -0.0629; 4: 0.797; 5: -0.601
